# Tested on: Plasmodium falciparum
# Procedure text: Primary screen in NF54 nanoGlo assay, in single point, at 2uM, 72h
# Assay type: functional, Erythrocyte
# Test settings: timepoint 72 hour
In all, about 150,000 compounds went through this assay and about 540 (0.36%) showed an effect of 50% or more. Many of the other results were omitted from the sample, so strong results are more common in it than they were.
This section presents compounds with their documented % Inhibition values.
Answer in %, number only, no unit symbol.

| Compound | Tested target | % Inhibition, % |
| --- | --- | --- |
| COc1cc2c(cc1OC)C(=O)N(Cc1ccccc1)C(=O)C2=O | Plasmodium falciparum | -13 |
| Cn1c(CN2CCN(c3ccnc4ccccc34)CC2)cc(=O)n(C)c1=O | Plasmodium falciparum | 17 |
| Cc1ccc2nc(-c3cc4ccccc4o3)cn2c1 | Plasmodium falciparum | 61 |
| CNC(=O)[C@H]1CCN(c2ncc(F)c(OC)n2)C1 | Plasmodium falciparum | -10 |
| Cn1nc2c(c1C(=O)NCc1csc(N)n1)CCCC2 | Plasmodium falciparum | 5 |
| Oc1cccc(CN[C@H]2CCCc3occc32)c1Cl | Plasmodium falciparum | 78 |
| CCc1nc2cc(N3CCC(C(=O)NCc4cc(F)cc(F)c4)CC3)cnc2nc1CC | Plasmodium falciparum | -5 |
| COCCc1nc(C)c([C@H](C)Nc2ccc3c(c2)CCC(=O)N3)s1 | Plasmodium falciparum | -15 |
| CCc1noc(C2(n3cccn3)CC2)n1 | Plasmodium falciparum | -8 |
| CC(O)CC(C)(C)CNC1CCCc2occc21 (centres undefined) | Plasmodium falciparum | 36 |

Any idea what % Inhibition was measured for COc1ccc2c(O)cc(-c3ccccc3)nc2c1 ? 37

Field entry: CCc1cc2c(N3CC(c4ncc(C5CC5)cn4)C3)ncnc2s1 0

// same read-out, input: O=S(=O)(Cc1ccc(OC(F)(F)F)cc1)Nc1cccnc1-n1cccn1 2

Subsequent entry: C[C@H]1CCN(Cc2ccncc2)CCN1Cc1ccccc1 -16

Please give the result for CC(C)(C)OC(=O)N1CCC1CN1CCCC(c2nnc(N)o2)C1 (centres undefined) too. 32

----------
# Tested on: Plasmodium falciparum
# Procedure text: Primary screen in NF54 nanoGlo assay, in single point, at 2uM, 72h
# Type: functional, Erythrocyte
# Test settings: timepoint 72 hour
The campaign covered roughly 150,000 compounds. About 540 (0.36%) showed an effect of 50% or more. The sample holds strong results, similar compounds and a random draw of the others, so the mix is not that of the screen.
// false (0) strictly below 0.9 in Z score; true (1) otherwise

| Compound | Qualitative label |
| --- | --- |
| CC1CCCN(C(C)CNC(=O)CCNC(=O)C2CC2C)C1 (stereo unspecified) | false (0) |

Threshold query (Z score >= 0.9) on Cc1c2c(=O)n(-c3nc4ccccc4s3)n(Cc3ccc(F)cc3)c2cc(=O)n1CCCN1CCOCC1 false (0)

Also need COC(=O)[C@H]1CCc2nnc(Cc3ccc(F)cc3)n2C1 , thanks. true (1)

What about this compound? CC(C)CNC(=O)CS(=O)(=O)Cc1ccccc1 true (1)

Moving on to CCc1nc2c(C(=O)N3CCOc4c(C)cc(C)cc43)ccnc2[nH]1 false (0)

Also need CCc1ccc(-c2cc(C(=O)Nc3ccc4nc(NS(C)(=O)=O)sc4c3)[nH]n2)cc1 , thanks. true (1)

Entry to check: COc1ccc(-c2c(C(F)(F)F)n[nH]c2-c2ccc(OCc3ccccc3F)cc2O)cc1 false (0)

What do you have for Cc1nn(-c2ccc(Cl)cc2)cc1-c1noc(C(=O)NC2CCC(C)CC2)n1 (stereo unspecified) ? true (1)

Now give it for COc1ccc(Oc2cn[nH]c2-c2ccc(OCc3ccc(F)cc3)cc2O)cc1 too. false (0)

// same read-out, input: CC(C)n1cc(C(=O)N(CCOc2ccc(Cl)cc2)Cc2ccco2)cn1 true (1)

Now this one: COc1ccc(-c2n[nH]c3c2[C@@H](c2ccc(OCc4ccccc4F)cc2)CC(=O)O3)cc1 true (1)

Query O=C(c1cc(-c2ccccc2)n[nH]1)N1CCC(N2CCC(Oc3ccccc3F)CC2)CC1 next true (1)

Now consider CCc1nc2cc(N3CCC(C(=O)NCc4cc(F)cc(F)c4)CC3)cnc2nc1CC and answer again. false (0)

Queued: O=C(c1cc(-c2ccco2)n[nH]1)N1CCC(N2CCC(Oc3ccccc3F)CC2)CC1 false (0)

Next compound: CCCC(C)NC(=O)C(C)NC1CCN(C(C)=O)CC1CC (stereo unspecified) false (0)

----------
# Test system: Plasmodium falciparum
# Procedure text: Primary screen in NF54 nanoGlo assay, in single point, at 2uM, 72h
# Assay type: functional, Erythrocyte
# Test settings: timepoint 72 hour
Hit rate of the full screen: of about 150,000 compounds, about 540 (0.36%) showed an effect of 50% or more. The sample holds strong results, similar compounds and a random draw of the others, so the mix is not that of the screen.
Recorded % Inhibition by entry
Answer with a number only, understood to be in %.

Use these answered entries as a reference point.
| Compound | % Inhibition / % |
| --- | --- |
| Cc1cccc(Cc2c(C)nn(-c3nc(C)cc(C)n3)c2O)c1 | 36 |
| Cc1cc(C(=O)NCCOc2ccccc2)c(C)s1 | -17 |
| COc1ccc(N2C(=O)c3ccccc3[C@@H]2c2cn(C)c3ccccc23)cc1 | 7 |

Requested field: % Inhibition. Item: CCS(=O)(=O)C1CCN(Cc2cn(-c3ccc(F)c(Cl)c3)nn2)CC1 8

Entry O=C(Nc1cccc2cccnc12)c1csnn1 please 6

Also need CC(c1ccccc1)N1C(=O)c2ccccc2C1c1c[nH]c2ccccc12 (configuration not stated) , thanks. 43

Consider next the compound CCN1C[C@H](Nc2ncnc3sc(C)cc23)[C@@H](OC)C1 in the same way. -9

----------
# System: Plasmodium falciparum
# Procedure text: Primary screen in NF54 nanoGlo assay, in single point, at 2uM, 72h
# Type: functional, Erythrocyte
# Test settings: timepoint 72 hour
About 540 (0.36%) of roughly 150,000 compounds showed an effect of 50% or more. The sample as a whole holds a higher share of strong results than the screen did.
Measurement label: % Inhibition (%)
Give the number; % is assumed, so skip it.

Reported % Inhibition for CC[C@@H](C(=O)Nc1cc(C)nn1-c1nc2c(c(=O)[nH]1)CCC2)c1ccccc1 : what is it? 17

Can you check CC[C@H](C)NC(=O)c1sc2nc(C)c(C(=O)Nc3ccc(C)cc3C)c(-c3cccs3)c2c1N next? 17

----------
# System: Plasmodium falciparum
# Procedure text: Primary screen in NF54 nanoGlo assay, in single point, at 2uM, 72h
# Format: functional, Erythrocyte
# Test settings: timepoint 72 hour
Out of some 150,000 compounds screened, about 540 (0.36%) showed an effect of 50% or more. This excerpt belongs to a sample that is enriched for strong results.
Measurement label: % Inhibition

| Compound | % Inhibition |
| --- | --- |
| Oc1ccccc1-c1cnc(C(F)(F)F)s1 | 93% |
| Cc1cc(N2CCC[C@H](CNC(=O)CN3CCOCC3)C2)nc2cc(F)ccc12 | -15% |
| COc1cc(C(c2c(C)n(C)n(-c3ccccc3)c2=O)c2c(C)n(C)n(-c3ccccc3)c2=O)c(Br)c(Br)c1OCc1ccccc1 | 35% |
| Cc1nnc([C@@]23COC[C@@H]2CN(C(=O)c2cccc4[nH]ccc24)C3)o1 | -10% |
| CCOc1cc(C(c2c(C)n(C)n(-c3ccccc3)c2=O)c2c(C)n(C)n(-c3ccccc3)c2=O)ccc1OCc1ccccc1 | 75% |

I'm curious: which % Inhibition was measured for Cc1c(-c2n[nH]c3c2CN(C(=O)c2csnn2)CC3)cccc1C(F)(F)F tested on Plasmodium falciparum? -12%

Then Cc1n[nH]c(=O)c2c1cnn2-c1ccccc1 ? 21%

----------
# Tested on: Plasmodium falciparum
# Procedure text: Primary screen in NF54 nanoGlo assay, in single point, at 2uM, 72h
# Assay type: functional, Erythrocyte
# Test settings: timepoint 72 hour
Out of some 150,000 compounds screened, about 540 (0.36%) showed an effect of 50% or more. Only a selection was taken, and strong results are over-represented in it overall.
Measurement label: Z score
Answer using only a numeral; do not append any unit.

Completed entries (count: 2):
| Smiles repr | Z score |
| --- | --- |
| O=C(Cc1ccc(N(Cc2cccc(F)c2)C(=O)c2cccc(F)c2)cc1)NCCN1CCCC1 | -0.41 |
| CCc1cccc2c(C3=CCN(c4ccc5nnc(C(F)(F)F)n5n4)CC3)c[nH]c12 | -2.04 |

// lookup Z score | system=Plasmodium falciparum | key= O=C(NCCN1CCCC1)c1ccc2nc(-c3ccc(Cl)cc3)cn2c1 -6.47

----------
# Test system: Plasmodium falciparum
# Procedure text: Primary screen in NF54 nanoGlo assay, in single point, at 2uM, 72h; a lower Z score goes with more inhibition
# Format: functional, Erythrocyte
# Test settings: timepoint 72 hour
Out of some 150,000 compounds screened, about 540 (0.36%) showed an effect of 50% or more. Shown is part of a subset that was picked to be rich in strong results.
Each item that follows carries a reported Z score.
// no unit string in output, number only

# Z score lookup, item CCN1CCN(c2c(CN(C(=O)Nc3cccc(F)c3)C(C)C)c(C)nn2-c2cccc(F)c2)CC1 -0.41

Repeat with Cc1ccc(C(=O)Nc2cccc(N3CCCCCC3)c2)c(=O)[nH]1 1.57

Please give the result for O=C1C2CCCCN2C(=O)N1CC(O)COc1ccc(F)cc1 (stereo not drawn) too. 0.77

And for COc1ccc2cc(C(=O)NCc3ccnc(Oc4ccccc4)c3)[nH]c2c1 ? 1.13

Please answer likewise for Nc1nc(C2CC(N)C2)cc(N2CCC(Oc3ccccc3Cl)CC2)n1 (stereo not drawn) -7.79

Queued: O=C(NC[C@H](O)c1cccnc1)c1ncoc1C1CC1 0.94

Now the compound CCN1CCN(c2cccc(NC(=O)c3ccc4[nH]c5ccccc5c(=O)c4c3)c2)CC1 -9.25

Repeat with CCOc1ccc(CN2CCC[C@@](F)(C(=O)N3CCOCC3)C2)cc1OC 0.93
